Target: human TLR9 (Homo sapiens (Human))
Sequence (Q9NR96 26-1032): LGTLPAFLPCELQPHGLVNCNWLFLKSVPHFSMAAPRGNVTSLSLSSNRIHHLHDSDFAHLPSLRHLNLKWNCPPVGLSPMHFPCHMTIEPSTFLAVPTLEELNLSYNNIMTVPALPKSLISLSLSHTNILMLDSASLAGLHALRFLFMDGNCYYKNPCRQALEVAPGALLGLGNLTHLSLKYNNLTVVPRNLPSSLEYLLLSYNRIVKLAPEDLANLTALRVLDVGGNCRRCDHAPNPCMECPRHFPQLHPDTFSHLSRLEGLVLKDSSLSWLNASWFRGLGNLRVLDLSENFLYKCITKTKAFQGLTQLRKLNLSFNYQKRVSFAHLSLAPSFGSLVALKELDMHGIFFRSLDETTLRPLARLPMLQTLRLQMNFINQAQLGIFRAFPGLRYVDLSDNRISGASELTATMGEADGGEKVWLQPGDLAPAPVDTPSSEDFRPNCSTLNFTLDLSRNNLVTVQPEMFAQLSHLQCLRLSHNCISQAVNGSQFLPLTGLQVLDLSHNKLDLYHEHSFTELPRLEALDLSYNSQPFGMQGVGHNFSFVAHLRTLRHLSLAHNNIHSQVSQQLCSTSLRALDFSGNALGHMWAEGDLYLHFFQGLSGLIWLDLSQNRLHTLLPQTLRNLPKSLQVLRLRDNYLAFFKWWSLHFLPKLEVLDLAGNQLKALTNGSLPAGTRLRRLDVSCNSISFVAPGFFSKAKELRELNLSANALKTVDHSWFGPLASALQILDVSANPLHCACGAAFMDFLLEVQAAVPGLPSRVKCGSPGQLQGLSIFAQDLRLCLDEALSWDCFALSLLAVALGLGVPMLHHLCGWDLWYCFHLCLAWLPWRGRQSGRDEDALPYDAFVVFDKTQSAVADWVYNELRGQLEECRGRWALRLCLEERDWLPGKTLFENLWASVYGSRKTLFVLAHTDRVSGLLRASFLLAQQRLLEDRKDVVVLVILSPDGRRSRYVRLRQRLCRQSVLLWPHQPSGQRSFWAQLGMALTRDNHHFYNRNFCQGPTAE
Assay: TLR9 inhibition reporter assay (HEK-Blue SEAP);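 also: SEAP driven by an IFN-β minimal promoter with NF-κB and AP-1 sites, read after 22 h, compounds dosed 0.05 nM–50 µM, inhibition scaled between agonist plus DMSO and reference-inhibitor wells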
Details: read-out: TLR9 IC50; HEK-Blue cells overexpressing human TLR9, SEAP reporter, ODN2006 5 nM
Examples of compounds with documented pIC50 follow.
Here pIC50 is given on a logarithmic scale as minus log10 of the concentration in mol/L.

Below, 10 compounds whose answers are already recorded.
IN: Look at this compound and give its reported pIC50. Cc1cnc(CN(C)C2CCC(c3ccc4[nH]c(-c5cn6ncnc6c(C)c5C)c(C(C)C)c4n3)CC2)cn1 (stereo not drawn) [Example 415]
OUT: 5.91

IN: Consider the compound shown here: CNC(=O)CN1CCC(c2ccc3[nH]c(-c4cn(C)c(=O)c(C)c4C)c(C(C)C)c3n2)CC1 What is its recorded pIC50?
OUT: 5.25

IN: Param item = Cc1c(-c2[nH]c3ccc(N4C[C@@H](C)NC[C@@H]4C)nc3c2C(C)C)cn2ncnc2c1C ; retrieve measured pIC50.
OUT: 5.11

IN: Param item = Cc1c(-c2[nH]c3ccc(C4CCN(CCS(C)(=O)=O)CC4)nc3c2C(C)C)cn2ncnc2c1C ; retrieve measured pIC50.
OUT: 5.29

IN: // query pIC50 value for entry CC(C)c1c(-c2cn(C)c3ncccc23)[nH]c2ccc(CCC3CNC3)nc12
OUT: 6.54

IN: Give the measured pIC50 of CC(C)c1c(-c2cn(C)c3ncccc23)[nH]c2ccc(CCC3CN(C(=O)CN(C)C)C3)nc12 .
OUT: 6.49

IN: Sample Cc1c(-c2[nH]c3ccc(C4CCC(NC5(C)COC5)CC4)nc3c2C(C)C)cn2ncnc2c1C (stereo not drawn) [Example 472] — what was its pIC50?
OUT: 5.60

IN: What pIC50 value was documented for this compound, Cc1c(-c2[nH]c3ccc(C4CCN(CC(C)(C)O)CC4)nc3c2C(C)C)cn2ncnc2c1C ?
OUT: 5.84

IN: Consider the compound shown here: COc1cc(-c2[nH]c3ccc(C4CCN(C(=O)CN(C)C)CC4)nc3c2C(C)C)cn2ncnc12 What is its recorded pIC50?
OUT: 6.40

IN: pIC50 for Cc1c(-c2[nH]c3cc(F)c(C4CCC(NC5CCOCC5)CC4)nc3c2C(C)C)cn2ncnc2c1C (stereo not drawn) [Example 504] ?
OUT: 5.43

Others:
IN: Reported pIC50 for Cc1cc2[nH]c(-c3cc(C)c4ncnn4c3)c(C(C)C)c2nc1C1CCN(C(=O)CN(C)C)CC1 : what is it?
OUT: 5.54

IN: Item under review: Cc1cc(-c2[nH]c3cc(F)c(C4CCN(C(=O)CN(C)C)CC4)nc3c2C(C)C)cn2ncnc12 . Reported pIC50?
OUT: 5.74

IN: Given Cc1c(-c2[nH]c3ccc(C4CCC(NCC5(C)COC5)CC4)nc3c2C(C)C)cn2ncnc2c1C (stereo not drawn) [Example 477] , state its recorded pIC50.
OUT: 5.21

IN: # get_value(readout='pIC50', item= Cc1cc(-c2[nH]c3cc(F)c(C4CCN(CCS(C)(=O)=O)CC4)nc3c2C(C)C)cn2ncnc12 )
OUT: 5.13

* * *

Biological target: human TLR8 (Homo sapiens (Human), UniProt Q9NR97)
Sequence (Q9NR97 27-1041): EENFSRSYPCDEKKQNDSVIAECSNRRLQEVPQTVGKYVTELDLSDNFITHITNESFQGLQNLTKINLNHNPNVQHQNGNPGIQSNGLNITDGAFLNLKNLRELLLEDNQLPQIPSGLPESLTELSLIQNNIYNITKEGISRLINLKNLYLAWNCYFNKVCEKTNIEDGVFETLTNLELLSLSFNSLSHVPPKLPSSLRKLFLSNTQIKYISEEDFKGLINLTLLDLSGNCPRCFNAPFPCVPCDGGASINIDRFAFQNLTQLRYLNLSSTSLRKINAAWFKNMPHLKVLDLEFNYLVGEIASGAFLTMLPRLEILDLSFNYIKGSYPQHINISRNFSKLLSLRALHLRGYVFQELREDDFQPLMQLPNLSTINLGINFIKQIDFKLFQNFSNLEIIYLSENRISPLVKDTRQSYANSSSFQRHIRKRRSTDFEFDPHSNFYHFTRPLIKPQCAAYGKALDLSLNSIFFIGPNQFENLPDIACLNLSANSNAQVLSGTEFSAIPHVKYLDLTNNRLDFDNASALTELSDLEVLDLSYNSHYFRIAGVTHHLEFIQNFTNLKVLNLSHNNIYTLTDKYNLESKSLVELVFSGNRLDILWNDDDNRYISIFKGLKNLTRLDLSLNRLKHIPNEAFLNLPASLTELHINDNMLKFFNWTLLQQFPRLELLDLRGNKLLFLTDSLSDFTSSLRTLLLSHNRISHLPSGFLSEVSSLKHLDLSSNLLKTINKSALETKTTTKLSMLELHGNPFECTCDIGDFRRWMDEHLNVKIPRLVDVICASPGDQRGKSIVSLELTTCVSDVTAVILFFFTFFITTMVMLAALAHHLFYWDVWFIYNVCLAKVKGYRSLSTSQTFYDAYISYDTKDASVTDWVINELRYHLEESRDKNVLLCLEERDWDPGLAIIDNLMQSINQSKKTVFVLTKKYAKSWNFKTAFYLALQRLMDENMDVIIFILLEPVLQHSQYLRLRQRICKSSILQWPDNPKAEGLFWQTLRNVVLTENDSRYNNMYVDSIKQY
Assay: TLR8 inhibition reporter assay (HEK-Blue SEAP)
Settings: read-out: TLR8 IC50; HEK-Blue cells overexpressing human TLR8, SEAP reporter, R848 15.9 μM
endpoint_label: pIC50
Give only the number. pIC50 is defined as minus log10 of concentration in molar units.

Answered cases to consult:
IN: Dear colleague, I am looking for the recorded pIC50 of the following compound: Cc1c(-c2[nH]c3ccc(C4CCNCC4)nc3c2C(C)C)cn(C)c(=O)c1C
OUT: 7.92

IN: Bench note: what pIC50 did Cc1c(-c2[nH]c3ccc(CCC4CN(Cc5c[nH]nn5)C4)nc3c2C(C)C)cn2ncnc2c1C show?
OUT: 7.82

IN: Which pIC50 is listed for COc1cc(-c2[nH]c3ccc(C4CCC(NC(=O)C5CCN(C)CC5)C4)nc3c2C(C)C)cn2ncnc12 (stereo not shown) ?
OUT: 8.03

IN: What value of measured pIC50 is listed for COc1cc(-c2[nH]c3ccc(OCC4CN(C)C4)nc3c2C(C)C)cn2ncnc12 ?
OUT: 8.21

IN: Param item = COc1cc(-c2[nH]c3cc(F)c(C4CCN(CCS(C)(=O)=O)CC4)nc3c2C(C)C)cn2ncnc12 ; retrieve measured pIC50.
OUT: 8.04

IN: What does the record list as pIC50 for Cc1c(-c2[nH]c3ccc(C4CCC(NC5(CO)COC5)CC4)nc3c2C(C)C)cn2ncnc2c1C (stereo not shown) [Example 484] ?
OUT: 7.96

Query compound follows.
IN: What does the data say about its pIC50? Entry: Cc1c(-c2[nH]c3ccc(N4C[C@H]5C[C@@H](C4)N5CCC(N)=O)nc3c2C(C)C)cn2ncnc2c1C
OUT: 8.22
